The measured values listed here are drawn from patent US20250304576A1.

study-target: Recombinant IKKα (Homo sapiens, UniProt O15111)
Construct: purchased Millipore, Dundee, UK
Sequence (O15111 whole entry): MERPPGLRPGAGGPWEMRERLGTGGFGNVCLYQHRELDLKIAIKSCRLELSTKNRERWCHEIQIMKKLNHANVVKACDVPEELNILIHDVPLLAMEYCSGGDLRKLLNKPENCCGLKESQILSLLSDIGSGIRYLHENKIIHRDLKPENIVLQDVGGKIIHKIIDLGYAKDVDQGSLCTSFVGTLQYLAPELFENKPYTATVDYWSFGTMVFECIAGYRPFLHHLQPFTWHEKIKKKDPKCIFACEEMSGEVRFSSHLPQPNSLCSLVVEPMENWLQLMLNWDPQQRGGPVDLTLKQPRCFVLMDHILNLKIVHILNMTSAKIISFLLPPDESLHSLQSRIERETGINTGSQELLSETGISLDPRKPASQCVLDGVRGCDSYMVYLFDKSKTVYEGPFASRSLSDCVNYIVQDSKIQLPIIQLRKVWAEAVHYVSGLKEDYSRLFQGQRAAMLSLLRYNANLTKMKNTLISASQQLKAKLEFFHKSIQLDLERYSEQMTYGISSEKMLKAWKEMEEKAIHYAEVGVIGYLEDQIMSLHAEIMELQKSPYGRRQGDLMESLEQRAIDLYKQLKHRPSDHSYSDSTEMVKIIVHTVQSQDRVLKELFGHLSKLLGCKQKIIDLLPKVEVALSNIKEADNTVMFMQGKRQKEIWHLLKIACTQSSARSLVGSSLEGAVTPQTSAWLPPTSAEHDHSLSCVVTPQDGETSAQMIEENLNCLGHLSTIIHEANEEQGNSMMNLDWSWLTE
assay-summary: DELFIA IKKα kinase assay (apparent Ki, Cheng-Prusoff)
Type: biochemical
condition-description: non-italicised figure: DELFIA assay
Method: IKKα and IKKβ inhibitory activity was determined using three different assays: a dissociation enhanced ligand fluorescent immunoassay (DELFIA) based on the protocol of HTScan™ IKKβ Kinase Assay (Cell Signaling Technology, USA); an Adapta IKKα assay (performed by Life Technologies); a Z′-LYTE™ IKKβ assay (performed by Life Technologies). […]
readout-type: pKi
Interpret pKi as the negative base-10 log of the concentration measured in mol/L.

Please review the entries below; each comes with its answer.
INSERT INTO results (mol_smiles, recorded_value) VALUES
  ('Nc1cc(-c2cc(-c3ccc(S(N)(=O)=O)cc3)c3[nH]nc(N)c3c2)ccn1', 7.57),
  ('Nc1nccc(-c2ccc3[nH]nc(N)c3c2)c1C#CC1CCCC1', 7.92),
  ('COC(=O)Nc1cc(-c2cc(C#CC(C)(C)OC)c3[nH]nc(N)c3c2)ccn1', 7.47),
  ('Nc1n[nH]c2ccc(-c3ccnc(NC(=O)Nc4ccc(Cl)cc4)c3)cc12', 7.32),
  ('Nc1cccc(-c2cc(-c3ccnc(N)c3)cc3c(N)n[nH]c23)c1', 7.85),
  ('Nc1n[nH]c2ccc(-c3ccnc(NC(=O)C4CC4)c3)cc12', 7.12),
  ('Nc1cc(-c2cc(-c3cccc(CO)c3)c3[nH]nc(N)c3c2)ccn1', 7.54),
  ('Nc1n[nH]c2ccc(-c3ccnc(NCCCO)n3)cc12', 7.19);

The record that follows has no pKi shown yet.
Report pKi, nothing else, for this compound: CCCNc1cc(-c2ccc3[nH]nc(N)c3c2)ccn1 7.31

====

study-target: Recombinant IKKα (Homo sapiens, UniProt O15111)
Construct: purchased Millipore, Dundee, UK
assay-summary: DELFIA IKKα kinase assay (apparent Ki, Cheng-Prusoff)
Format: biochemical
condition-description: non-italicised figure: DELFIA assay
pKi: −log10 of the molar value.
# cutoff 8 applies to pKi; >= gives t, < gives f

INSERT INTO results (mol_smiles, label_value) VALUES
  ('CC(C)(C)C#Cc1cc(-c2ccnc(N)n2)cc2c(N)n[nH]c12', 'f'),
  ('Cc1cc(-c2ccnc(N)c2)cc2c(N)n[nH]c12', 'f');

Please indicate if the recorded pKi for CCNC(=O)Nc1cc(-c2cc(C#CC(C)(C)C)c3[nH]nc(N)c3c2)ccn1 meets or exceeds 8. f

Please indicate if the recorded pKi for COc1cccc(-c2cc(-c3ccnc(N)c3)cc3c(N)n[nH]c23)c1 meets or exceeds 8. f

Please indicate if the recorded pKi for CCCCCCNc1cc(-c2ccc3[nH]nc(N)c3c2)ccn1 meets or exceeds 8. f

Please indicate if the recorded pKi for CC(C)(C)C#Cc1cc(-c2ccnc(NC3CC3)c2)cc2c(N)n[nH]c12 meets or exceeds 8. t

====

study-target: Recombinant IKKβ (Homo sapiens, UniProt O14920)
Construct: purchased Millipore, Dundee, UK
Sequence (O14920 whole entry): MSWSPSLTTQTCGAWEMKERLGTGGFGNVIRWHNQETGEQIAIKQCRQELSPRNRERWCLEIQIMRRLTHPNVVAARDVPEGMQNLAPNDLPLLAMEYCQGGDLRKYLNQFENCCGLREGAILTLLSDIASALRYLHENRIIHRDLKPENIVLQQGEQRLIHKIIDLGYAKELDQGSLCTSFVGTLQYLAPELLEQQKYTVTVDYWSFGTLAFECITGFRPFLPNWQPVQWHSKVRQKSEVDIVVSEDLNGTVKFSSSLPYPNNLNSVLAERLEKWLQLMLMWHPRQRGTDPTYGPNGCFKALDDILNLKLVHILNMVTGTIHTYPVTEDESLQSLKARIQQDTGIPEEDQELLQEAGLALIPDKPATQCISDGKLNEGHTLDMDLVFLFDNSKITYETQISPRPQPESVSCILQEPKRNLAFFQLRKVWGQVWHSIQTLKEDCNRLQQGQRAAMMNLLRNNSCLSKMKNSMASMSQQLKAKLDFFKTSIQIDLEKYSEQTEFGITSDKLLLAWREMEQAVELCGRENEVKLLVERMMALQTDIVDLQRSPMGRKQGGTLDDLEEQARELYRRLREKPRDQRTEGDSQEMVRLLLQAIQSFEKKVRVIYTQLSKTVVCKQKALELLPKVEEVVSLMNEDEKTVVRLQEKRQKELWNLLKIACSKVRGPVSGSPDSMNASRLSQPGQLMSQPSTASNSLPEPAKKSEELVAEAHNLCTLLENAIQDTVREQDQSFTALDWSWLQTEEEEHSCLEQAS
assay-summary: DELFIA IKKβ kinase assay (apparent Ki, Cheng-Prusoff)
Format: biochemical
condition-description: non-italicised figure: DELFIA assay
pKi: −log10 of the molar value.
# cutoff 6 applies to pKi; >= gives met, < gives not met

// known answers, use as guide
INSERT INTO assay_data (mol_smiles, label_value) VALUES
  ('CC(C)(C)C#Cc1cc(-c2ccnc(NCC3CC3)c2)cc2c(N)n[nH]c12', 'not met'),
  ('CC(C)OCCCNc1cc(-c2ccc3[nH]nc(N)c3c2)ccn1', 'not met'),
  ('CC(=O)Nc1cc(-c2cc(C#CC(C)(C)C)c3[nH]nc(N)c3c2)ccn1', 'met'),
  ('Nc1n[nH]c2ccc(-c3ccnc(NC(=O)NCCc4ccccc4)c3)cc12', 'not met'),
  ('CC(C)(C)C#Cc1cc(-c2ccnc(NCCN)c2)cc2c(N)n[nH]c12', 'not met');

# ---- query compound ----
Please indicate if the recorded pKi for CN(CCCO)c1cc(-c2ccc3[nH]nc(N)c3c2)ccn1 meets or exceeds 6. not met
